System: TAZ-DEP MCF10A-TAZ tumor cells
run description: cell viability relative to DMSO control; higher = less cytotoxic; extreme values may be limits of the assay
condition set: 5 µM; 72 h
t if cell viability is below 50%. f if not; exact matches included in f.

Previously resolved entries follow.
compound | system | class
COC1CCN(C(=O)c2cc(Cc3n[nH]c(=O)c4ccccc34)ccc2F)CC1 [AZD2461] | TAZ-DEP MCF10A-TAZ tumor cells | f
Cc1c(Cc2ccc3ccccc3n2)c2cc(F)ccc2n1CC(=O)O | TAZ-DEP MCF10A-TAZ tumor cells | f
N#CC(=C(/N)Sc1ccccc1N)/C(C#N)=C(\N)Sc1ccccc1N [U0126-EtOH] | TAZ-DEP MCF10A-TAZ tumor cells | f
Cc1[nH]nc(C(F)(F)F)c1Cc1sc2c(c1C(=O)N1C[C@](C)(O)CO1)c(=O)n(C)c(=O)n2C(C)C [AZD3965] | TAZ-DEP MCF10A-TAZ tumor cells | t

Does this compound meet the criterion cell viability < 50%? O=C(O)c1cc2cccc([N+](=O)[O-])c2[nH]1
t

Does this compound meet the criterion cell viability < 50%? O=C([C@@H](Cc1cccc(C(F)(F)F)c1)NS(=O)(=O)c1cc(F)c2c(c1)CCNC2)N1CCCC1 [PFI-2]
f

Does this compound meet the criterion cell viability < 50%? O=C1NC(=O)/C(=C/c2ccc(-c3ccc(F)cc3O)o2)S1
t

Does this compound meet the criterion cell viability < 50%? C[C@H]1COC2=C1C(=O)C(=O)c1c2ccc2c1CCCC2(C)C [Cryptotanshinone]
f

Does this compound meet the criterion cell viability < 50%? CCc1nc(N)nc(N)c1-c1ccc(Cl)cc1 [Pyrimethamine]
f
